Numbers sourced from ChEMBL document CHEMBL2203257.

protocolSummary: Cmax in mouse at 10 mg/kg, po BID
Assay type: ADME, organism-based
Set-up: dose 10 mg/kg, route oral
experimentalParameters: in vivo
readoutLabel: Cmax (µM)
Express the result in µM but write the number alone.

Lab book: Cmax of `CC(C)(C)NS(=O)(=O)c1cncc(-c2ccn3nc(N)nc3c2)c1` noted as 10.2

---

Tested on: Hepatocyte
protocolSummary: Metabolic stability in human hepatocytes measured per gram of tissue
Type: ADME, cell-based
readoutLabel: CLint (mL/min/g)
Express the result in mL/min/g but write the number alone.

Lab book: CLint of `CC(C)(C)NS(=O)(=O)c1cncc(-c2cc(F)n3nc(N)nc3c2)c1` noted as 2.5

---

Protein target, amino acids: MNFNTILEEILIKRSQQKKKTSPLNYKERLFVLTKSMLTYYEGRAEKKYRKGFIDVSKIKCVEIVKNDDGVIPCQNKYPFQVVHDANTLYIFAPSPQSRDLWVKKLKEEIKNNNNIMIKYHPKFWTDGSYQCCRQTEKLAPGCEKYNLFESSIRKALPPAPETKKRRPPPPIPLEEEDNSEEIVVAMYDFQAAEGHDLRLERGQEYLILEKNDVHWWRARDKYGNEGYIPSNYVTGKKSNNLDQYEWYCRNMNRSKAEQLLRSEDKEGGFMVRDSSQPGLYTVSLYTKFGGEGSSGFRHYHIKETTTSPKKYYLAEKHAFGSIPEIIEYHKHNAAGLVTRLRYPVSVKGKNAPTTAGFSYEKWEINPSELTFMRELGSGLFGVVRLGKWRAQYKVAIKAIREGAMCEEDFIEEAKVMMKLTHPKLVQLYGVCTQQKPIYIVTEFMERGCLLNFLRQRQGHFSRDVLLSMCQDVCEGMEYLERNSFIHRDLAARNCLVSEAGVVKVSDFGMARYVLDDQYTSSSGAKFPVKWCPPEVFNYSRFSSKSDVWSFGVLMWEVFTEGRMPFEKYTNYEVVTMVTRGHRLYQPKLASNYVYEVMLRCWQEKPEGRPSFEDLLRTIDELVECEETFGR
pIC50: −log10 of the molar value.
readoutLabel: pIC50

Lab book: pIC50 of `CC(C)(C)NS(=O)(=O)c1cncc(-c2ccn3nc(N)nc3c2)c1` noted as < 5.00

---

targetOrSystem: Tyrosine-protein kinase ABL1 (Homo sapiens, UniProt P00519)
Sequence (P00519 whole entry): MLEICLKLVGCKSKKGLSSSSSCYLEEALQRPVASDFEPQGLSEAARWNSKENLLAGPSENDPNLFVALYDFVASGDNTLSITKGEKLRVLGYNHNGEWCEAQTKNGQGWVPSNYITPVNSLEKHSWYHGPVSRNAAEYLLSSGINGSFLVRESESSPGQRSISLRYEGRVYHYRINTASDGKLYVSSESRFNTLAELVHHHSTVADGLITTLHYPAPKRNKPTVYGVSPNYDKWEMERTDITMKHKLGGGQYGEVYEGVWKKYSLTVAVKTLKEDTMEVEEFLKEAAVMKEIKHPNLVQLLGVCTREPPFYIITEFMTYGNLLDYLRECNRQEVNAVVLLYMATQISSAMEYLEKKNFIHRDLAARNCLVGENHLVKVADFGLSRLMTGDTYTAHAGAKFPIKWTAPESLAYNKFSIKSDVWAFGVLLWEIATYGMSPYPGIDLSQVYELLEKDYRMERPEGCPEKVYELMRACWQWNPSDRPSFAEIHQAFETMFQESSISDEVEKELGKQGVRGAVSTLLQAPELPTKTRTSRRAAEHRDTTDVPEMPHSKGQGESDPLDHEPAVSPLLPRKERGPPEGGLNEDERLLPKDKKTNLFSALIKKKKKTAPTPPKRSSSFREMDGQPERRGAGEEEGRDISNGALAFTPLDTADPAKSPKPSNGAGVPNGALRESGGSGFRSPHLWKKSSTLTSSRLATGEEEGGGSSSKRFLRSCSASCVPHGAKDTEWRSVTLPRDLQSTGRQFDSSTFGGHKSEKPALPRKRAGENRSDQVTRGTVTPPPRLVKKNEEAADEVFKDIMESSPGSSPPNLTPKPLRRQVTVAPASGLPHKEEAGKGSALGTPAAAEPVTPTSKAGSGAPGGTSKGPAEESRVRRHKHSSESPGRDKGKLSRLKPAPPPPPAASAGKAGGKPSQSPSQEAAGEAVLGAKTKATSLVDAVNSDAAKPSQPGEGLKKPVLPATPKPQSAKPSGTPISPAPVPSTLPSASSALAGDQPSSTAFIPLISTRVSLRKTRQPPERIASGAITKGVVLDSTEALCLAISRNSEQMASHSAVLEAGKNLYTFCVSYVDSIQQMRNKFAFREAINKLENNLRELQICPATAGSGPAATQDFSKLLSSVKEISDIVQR
readoutLabel: IC50

Lab book: IC50 of `CC(C)(C)NS(=O)(=O)c1cncc(-c2ccn3nc(N)nc3c2)c1` noted as > 10 µM

---

targetOrSystem: UniProt Q00535
Sequence (Q00535 whole entry): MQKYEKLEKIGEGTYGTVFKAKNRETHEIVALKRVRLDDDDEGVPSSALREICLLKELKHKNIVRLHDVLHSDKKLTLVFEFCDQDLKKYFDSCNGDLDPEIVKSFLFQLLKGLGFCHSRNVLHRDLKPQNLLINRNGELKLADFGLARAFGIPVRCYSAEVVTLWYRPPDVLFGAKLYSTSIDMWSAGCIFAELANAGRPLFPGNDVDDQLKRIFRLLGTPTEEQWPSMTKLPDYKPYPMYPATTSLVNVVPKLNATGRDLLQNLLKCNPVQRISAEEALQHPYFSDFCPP
pIC50: −log10 of the molar value.
readoutLabel: pIC50

Lab book: pIC50 of `CC(C)(C)NS(=O)(=O)c1cncc(-c2ccn3nc(N)nc3c2)c1` noted as < 5.00

---

targetOrSystem: Phosphatidylinositol 3-kinase catalytic subunit type 3 (Homo sapiens, UniProt Q8NEB9)
Sequence (Q8NEB9 whole entry): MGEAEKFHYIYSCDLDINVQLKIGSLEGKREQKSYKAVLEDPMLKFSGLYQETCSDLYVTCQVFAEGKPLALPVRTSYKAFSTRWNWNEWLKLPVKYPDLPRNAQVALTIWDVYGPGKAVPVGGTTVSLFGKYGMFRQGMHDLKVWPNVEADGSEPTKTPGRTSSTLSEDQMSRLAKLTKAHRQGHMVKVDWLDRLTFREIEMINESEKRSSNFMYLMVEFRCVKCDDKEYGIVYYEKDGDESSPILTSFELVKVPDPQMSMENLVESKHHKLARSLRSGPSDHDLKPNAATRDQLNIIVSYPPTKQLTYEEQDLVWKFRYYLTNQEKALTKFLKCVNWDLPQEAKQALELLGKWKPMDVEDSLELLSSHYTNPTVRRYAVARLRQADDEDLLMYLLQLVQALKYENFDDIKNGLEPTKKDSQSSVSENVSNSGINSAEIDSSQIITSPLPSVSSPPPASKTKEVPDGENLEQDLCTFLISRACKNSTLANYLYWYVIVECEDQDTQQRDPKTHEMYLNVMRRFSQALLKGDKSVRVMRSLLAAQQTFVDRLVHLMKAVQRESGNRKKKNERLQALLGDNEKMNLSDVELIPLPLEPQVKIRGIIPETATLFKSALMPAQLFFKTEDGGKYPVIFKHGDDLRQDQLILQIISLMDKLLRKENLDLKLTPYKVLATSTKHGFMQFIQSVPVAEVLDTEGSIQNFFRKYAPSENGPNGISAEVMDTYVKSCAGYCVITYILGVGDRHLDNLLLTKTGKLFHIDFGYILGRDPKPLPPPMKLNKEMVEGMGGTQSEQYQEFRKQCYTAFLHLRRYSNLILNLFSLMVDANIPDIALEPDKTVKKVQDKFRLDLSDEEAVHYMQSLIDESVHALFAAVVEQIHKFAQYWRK
protocolSummary: Inhibition of PIK3C3
readoutLabel: IC50

Lab book: IC50 of `CC(C)(C)NS(=O)(=O)c1cncc(-c2ccn3nc(N)nc3c2)c1` noted as > 5.89 µM

---

targetOrSystem: Mitogen-activated protein kinase 1 (Homo sapiens, UniProt P28482)
Sequence (P28482 whole entry): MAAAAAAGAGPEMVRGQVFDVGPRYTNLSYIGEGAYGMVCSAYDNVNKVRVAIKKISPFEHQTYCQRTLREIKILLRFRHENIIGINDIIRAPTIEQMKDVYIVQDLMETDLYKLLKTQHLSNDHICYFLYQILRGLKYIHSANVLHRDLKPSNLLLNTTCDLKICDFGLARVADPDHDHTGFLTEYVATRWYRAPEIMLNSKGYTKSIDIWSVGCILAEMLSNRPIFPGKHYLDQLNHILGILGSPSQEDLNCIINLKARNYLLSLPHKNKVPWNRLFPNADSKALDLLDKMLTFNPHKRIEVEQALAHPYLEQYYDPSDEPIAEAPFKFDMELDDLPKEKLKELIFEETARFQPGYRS
protocolSummary: Inhibition of MAPK1
pIC50: −log10 of the molar value.
readoutLabel: pIC50

Lab book: pIC50 of `CC(C)(C)NS(=O)(=O)c1cncc(-c2ccn3nc(N)nc3c2)c1` noted as < 5.00
